- experimental.target: Homeodomain-interacting protein kinase 1 (Homo sapiens) (UniProt Q86Z02);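 also: each value is a mean percent inhibition of HIPK1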
- Sequence (Q86Z02 whole entry, looked up): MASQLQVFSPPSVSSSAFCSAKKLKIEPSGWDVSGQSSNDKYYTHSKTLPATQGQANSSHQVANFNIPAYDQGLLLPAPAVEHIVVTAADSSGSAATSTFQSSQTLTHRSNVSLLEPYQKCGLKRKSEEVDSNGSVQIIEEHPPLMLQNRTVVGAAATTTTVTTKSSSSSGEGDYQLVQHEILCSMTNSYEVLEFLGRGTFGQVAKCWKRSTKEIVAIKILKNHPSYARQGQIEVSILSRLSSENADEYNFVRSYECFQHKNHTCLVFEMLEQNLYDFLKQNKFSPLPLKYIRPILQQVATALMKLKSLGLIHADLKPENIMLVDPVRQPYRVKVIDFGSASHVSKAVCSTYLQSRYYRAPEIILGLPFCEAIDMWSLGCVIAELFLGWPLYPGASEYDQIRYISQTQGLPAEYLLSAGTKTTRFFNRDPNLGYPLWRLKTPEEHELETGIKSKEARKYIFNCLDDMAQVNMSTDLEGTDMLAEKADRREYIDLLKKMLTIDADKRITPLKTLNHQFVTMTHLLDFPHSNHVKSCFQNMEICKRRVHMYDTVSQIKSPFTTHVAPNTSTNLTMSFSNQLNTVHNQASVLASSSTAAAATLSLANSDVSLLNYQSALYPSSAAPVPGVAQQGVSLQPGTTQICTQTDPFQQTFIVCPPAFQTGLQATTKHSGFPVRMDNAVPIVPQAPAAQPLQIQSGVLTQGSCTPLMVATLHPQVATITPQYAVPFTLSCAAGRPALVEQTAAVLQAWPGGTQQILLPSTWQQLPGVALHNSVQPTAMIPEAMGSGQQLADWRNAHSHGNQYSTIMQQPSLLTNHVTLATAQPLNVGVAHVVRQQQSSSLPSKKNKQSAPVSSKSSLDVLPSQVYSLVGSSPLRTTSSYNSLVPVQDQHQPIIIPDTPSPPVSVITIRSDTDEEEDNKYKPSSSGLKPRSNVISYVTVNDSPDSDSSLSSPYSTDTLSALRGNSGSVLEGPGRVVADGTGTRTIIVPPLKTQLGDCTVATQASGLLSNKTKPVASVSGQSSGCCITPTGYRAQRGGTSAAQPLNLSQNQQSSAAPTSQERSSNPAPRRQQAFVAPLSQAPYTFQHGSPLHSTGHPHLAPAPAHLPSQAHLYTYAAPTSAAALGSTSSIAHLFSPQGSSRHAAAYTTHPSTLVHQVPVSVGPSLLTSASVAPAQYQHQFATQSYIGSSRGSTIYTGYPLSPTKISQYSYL
- condition.summary: at 0.1 µM
experimental.endpoint: inhibition (%)
Please give a number only; it is taken to be in %.

Query :: What value of inhibition has been recorded for this entry: `CC(=O)NCc1cccc(C#Cc2cncnc2Nc2ccc(OCc3cccc(F)c3)c(Cl)c2)c1`
Result :: -1.17

Query :: What value of inhibition has been recorded for this entry: `CCn1cc(-c2ccnc3[nH]ccc23)c(-c2cccc(NC(=O)Nc3ccc(OCc4ccccc4)cc3)c2)n1`
Result :: -3.5

Query :: What value of inhibition has been recorded for this entry: `Cc1ccc2c(-c3ccnc(Nc4ccccc4)n3)c(-c3ccc(F)cc3)nn2n1`
Result :: -0.41

Query :: What value of inhibition has been recorded for this entry: `COC(=O)Nc1nc2ccc(S(=O)(=O)c3ccc(NC(=O)Nc4cc(C(F)(F)F)ccc4F)cc3)cc2[nH]1`
Result :: -0.95

Query :: What value of inhibition has been recorded for this entry: `COc1ccc(CNC(=O)c2ccc(-c3cc(-c4nnc(C)o4)ccc3C)cc2)cc1`
Result :: 5.43
